The origin of these recorded values is PubChem BioAssay AID2060509.

# Tested on: 485176-168-R4-J1-PDC spheroids with HUVEC/MSC, viability
# RUN_DESCRIPTION: Anticancer human tumor 485176-168-R4-J1-PDC patient-derived pancreatic adenocarcinoma cell line growth inhibition [GQUAD]; active = viability on the fitted dose curve at most 10% of control; inactive = the rest
# REPORTED_CONDITIONS: second compound 0.1 µM; first compound 10 µM
# valid calls are 1 (active), 0 (inactive); nothing else

>>> class_label("CCCS(=O)(=O)Nc1ccc(F)c(C(=O)c2c[nH]c3ncc(-c4ccc(Cl)cc4)cc23)c1F + CN(C)c1ccc(Nc2c3ccc(NC(=O)CCN4CCCC4)cc3nc3cc(NC(=O)CCN4CCCC4)ccc23)cc1")
0
>>> class_label("COc1cccc2c1C(=O)c1c(O)c3c(c(O)c1C2=O)CC(O)(C(=O)CO)CC3OC1CC(N)C(O)C(C)O1 (stereo not drawn) + CN(C)c1ccc(Nc2c3ccc(NC(=O)CCN4CCCC4)cc3nc3cc(NC(=O)CCN4CCCC4)ccc23)cc1")
1

Read the next record carefully.
Q. Hi, do you know how Nc1ccn(C2OC(CO)C(O)C2(F)F)c(=O)n1 (stereo not drawn) + CN(C)c1ccc(Nc2c3ccc(NC(=O)CCN4CCCC4)cc3nc3cc(NC(=O)CCN4CCCC4)ccc23)cc1 came out in this test?
A. 0

* * *

# Test system: 485176-168-R4-J1-PDC spheroids with HUVEC/MSC, viability
# RUN_DESCRIPTION: Anticancer human tumor 485176-168-R4-J1-PDC cell line growth inhibition [GQUAD];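 note: spheroids exposed to compounds for seven days before readout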;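 for viability, T/C: percent viability relative to DMSO vehicle control wells as 100%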
# REPORTED_CONDITIONS: second compound 0.1 µM; first compound 0.000999 µM; stronger effect = lower value
ASSAY_READOUT: viability, T/C (%)
The reply should be a number in %, with the unit left off.

>>> recorded_value("CC[C@@]1(O)C(=O)OCc2c1cc1n(c2=O)Cc2cc3c(CN(C)C)c(O)ccc3nc2-1 + CN(C)c1ccc(Nc2c3ccc(NC(=O)CCN4CCCC4)cc3nc3cc(NC(=O)CCN4CCCC4)ccc23)cc1")
94.8

Q. If you can, please state the reported viability, T/C value of Cc1[nH]c2ccccc2c1CCNCc1ccc(/C=C/C(=O)NO)cc1 + Cc1cnc(CNC(=O)c2c(=O)c3ccc(N4CCCN(C)CC4)nc3n3c2sc2ccccc23)cn1 .
A. 74.5

Q. If you can, please state the reported viability, T/C value of CCc1c2c(nc3ccc(O)cc13)-c1cc3c(c(=O)n1C2)COC(=O)[C@]3(O)CC + Cc1cnc(CNC(=O)c2c(=O)c3ccc(N4CCCN(C)CC4)nc3n3c2sc2ccccc23)cn1 .
A. 54.7

* * *

# System: 485176-168-R4-J1-PDC spheroids with HUVEC/MSC, viability
# RUN_DESCRIPTION: Anticancer human tumor 485176-168-R4-J1-PDC cell line growth inhibition [GQUAD];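 note: spheroids exposed to compounds for seven days before readout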;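 for viability, T/C: percent viability relative to DMSO vehicle control wells as 100%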
# REPORTED_CONDITIONS: second compound 0.1 µM; first compound 0.0316 µM; stronger effect = lower value
ASSAY_READOUT: viability, T/C (%)
The reply should be a number in %, with the unit left off.

Worked examples follow.
>>> recorded_value("COc1cc(C2c3cc4c(cc3C(OC3OC5COC(C)OC5C(O)C3O)C3COC(=O)C23)OCO4)cc(OC)c1O (stereo not given) + Cc1cnc(CNC(=O)c2c(=O)c3ccc(N4CCCN(C)CC4)nc3n3c2sc2ccccc23)cn1")
65.4
>>> recorded_value("CC1COCCN1c1cc(C2(S(C)(=N)=O)CC2)nc(-c2ccnc3[nH]ccc23)n1 (stereo not given) + Cc1[nH]c2ccc(F)cc2c1-c1nc2c3cccnc3c3ncccc3c2[nH]1")
89.4
>>> recorded_value("Nc1ccn(C2OC(CO)C(O)C2(F)F)c(=O)n1 (stereo not given) + Cc1cnc(CNC(=O)c2c(=O)c3ccc(N4CCCN(C)CC4)nc3n3c2sc2ccccc23)cn1")
51.1
>>> recorded_value("Cc1cccc(N(C)C(=O)C2C(O)CCN2c2nc(C)cc(C(F)(F)F)c2C#N)c1 (stereo not given) + Cc1cnc(CNC(=O)c2c(=O)c3ccc(N4CCCN(C)CC4)nc3n3c2sc2ccccc23)cn1")
64.2

Alright, here's another compound for you.
Q. If you can, please state the reported viability, T/C value of COc1cc(C2c3cc4c(cc3C(OC3OC5COC(C)OC5C(O)C3O)C3COC(=O)C23)OCO4)cc(OC)c1O (stereo not given) + Cc1[nH]c2ccc(F)cc2c1-c1nc2c3cccnc3c3ncccc3c2[nH]1 .
A. 92.3

* * *

# Tested on: 485176-168-R4-J1-PDC spheroids with HUVEC/MSC, viability
# RUN_DESCRIPTION: Anticancer human tumor 485176-168-R4-J1-PDC cell line growth inhibition [GQUAD];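 note: spheroids exposed to compounds for seven days before readout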;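 for viability, T/C: percent viability relative to DMSO vehicle control wells as 100%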
# REPORTED_CONDITIONS: second compound 0.316 µM; first compound 1 µM; stronger effect = lower value
Threshold-based label: viability, T/C under 50% gives 1.0, viability, T/C not under 50% gives 0.0.

Previously resolved entries follow.
>>> class_label("CC(C)(O)C1CCC(Nc2ccc3ncc(-c4cccc(C(F)(F)F)c4)n3n2)CC1 (stereo not given) + Cc1cnc(CNC(=O)c2c(=O)c3ccc(N4CCCN(C)CC4)nc3n3c2sc2ccccc23)cn1")
0.0
>>> class_label("O=c1[nH]cc(F)c(=O)[nH]1 + Cc1[nH]c2ccc(F)cc2c1-c1nc2c3cccnc3c3ncccc3c2[nH]1")
0.0
>>> class_label("CC(C)n1c(=O)n(C)c2cnc3cc(F)c(-c4ccc(OCCCN5CCCCC5)nc4)cc3c21 + Cc1cnc(CNC(=O)c2c(=O)c3ccc(N4CCCN(C)CC4)nc3n3c2sc2ccccc23)cn1")
1.0
>>> class_label("COc1ncnc(C2CC2)c1-c1ncc2cnn(Cc3ccc(-c4nc(C(F)(F)F)cn4C(C)C)cc3)c2n1 + Cc1cnc(CNC(=O)c2c(=O)c3ccc(N4CCCN(C)CC4)nc3n3c2sc2ccccc23)cn1")
0.0

Read the next record carefully.
Q. Given CC(=O)O[C@H]1C(=O)[C@@]2(C)[C@H]([C@H](OC(=O)c3ccccc3)[C@]3(O)C[C@H](OC(=O)[C@H](O)[C@@H](NC(=O)c4ccccc4)c4ccccc4)C(C)=C1C3(C)C)[C@]1(OC(C)=O)CO[C@@H]1C[C@@H]2O + Cc1[nH]c2ccc(F)cc2c1-c1nc2c3cccnc3c3ncccc3c2[nH]1 , is recorded viability, T/C strictly lower than 50%?
A. 1.0

* * *

# System: 485176-168-R4-J1-PDC spheroids with HUVEC/MSC, viability
# RUN_DESCRIPTION: Anticancer human tumor 485176-168-R4-J1-PDC cell line growth inhibition [GQUAD];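 note: spheroids exposed to compounds for seven days before readout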
# REPORTED_CONDITIONS: curve of first compound; second compound 0.1 µM
Threshold-based label: IC50 under 70 nM gives 1 (yes), IC50 not under 70 nM gives 0 (no).

Previously resolved entries follow.
>>> class_label("CC(C)n1c(=O)n(C)c2cnc3cc(F)c(-c4ccc(OCCCN5CCCCC5)nc4)cc3c21 + CN(C)c1ccc(Nc2c3ccc(NC(=O)CCN4CCCC4)cc3nc3cc(NC(=O)CCN4CCCC4)ccc23)cc1")
"0 (no)"
>>> class_label("CC1COCCN1c1cc(C2(O)CC3CCC(C2)O3)c2cnn(-c3ccn[nH]3)c2n1 (configuration not stated) + Cc1cnc(CNC(=O)c2c(=O)c3ccc(N4CCCN(C)CC4)nc3n3c2sc2ccccc23)cn1")
"1 (yes)"
>>> class_label("COc1cccc2c1C(=O)c1c(O)c3c(c(O)c1C2=O)CC(O)(C(=O)CO)CC3OC1CC(N)C(O)C(C)O1 (configuration not stated) + CN(C)c1ccc(Nc2c3ccc(NC(=O)CCN4CCCC4)cc3nc3cc(NC(=O)CCN4CCCC4)ccc23)cc1")
"0 (no)"
>>> class_label("C=CC(=O)N1CCN(c2nc(=O)n(-c3c(C)ccnc3C(C)C)c3nc(-c4c(O)cccc4F)c(F)cc23)C(C)C1 (configuration not stated) + CN(C)c1ccc(Nc2c3ccc(NC(=O)CCN4CCCC4)cc3nc3cc(NC(=O)CCN4CCCC4)ccc23)cc1")
"0 (no)"

Q. Given Cc1cccc(N(C)C(=O)C2C(O)CCN2c2nc(C)cc(C(F)(F)F)c2C#N)c1 (configuration not stated) + Cc1cnc(CNC(=O)c2c(=O)c3ccc(N4CCCN(C)CC4)nc3n3c2sc2ccccc23)cn1 , is recorded IC50 strictly lower than 70 nM?
A. 0 (no)

Q. Given Cc1[nH]c2ccccc2c1CCNCc1ccc(/C=C/C(=O)NO)cc1 + CN(C)c1ccc(Nc2c3ccc(NC(=O)CCN4CCCC4)cc3nc3cc(NC(=O)CCN4CCCC4)ccc23)cc1 , is recorded IC50 strictly lower than 70 nM?
A. 0 (no)

Q. Given CC1COCCN1c1cc(C2(S(C)(=N)=O)CC2)nc(-c2ccnc3[nH]ccc23)n1 (configuration not stated) + Cc1[nH]c2ccc(F)cc2c1-c1nc2c3cccnc3c3ncccc3c2[nH]1 , is recorded IC50 strictly lower than 70 nM?
A. 0 (no)

Q. Given Cc1[nH]c2ccccc2c1CCNCc1ccc(/C=C/C(=O)NO)cc1 + Cc1cnc(CNC(=O)c2c(=O)c3ccc(N4CCCN(C)CC4)nc3n3c2sc2ccccc23)cn1 , is recorded IC50 strictly lower than 70 nM?
A. 1 (yes)

Q. Given CC[C@@]1(O)C(=O)OCc2c1cc1n(c2=O)Cc2cc3c(CN(C)C)c(O)ccc3nc2-1 + Cc1[nH]c2ccc(F)cc2c1-c1nc2c3cccnc3c3ncccc3c2[nH]1 , is recorded IC50 strictly lower than 70 nM?
A. 0 (no)

Q. Given Nc1ccn(C2OC(CO)C(O)C2(F)F)c(=O)n1 (configuration not stated) + CN(C)c1ccc(Nc2c3ccc(NC(=O)CCN4CCCC4)cc3nc3cc(NC(=O)CCN4CCCC4)ccc23)cc1 , is recorded IC50 strictly lower than 70 nM?
A. 1 (yes)

Q. Given O=C(c1cc(Cc2n[nH]c(=O)c3ccccc23)ccc1F)N1CCN(C(=O)C2CC2)CC1 + Cc1cnc(CNC(=O)c2c(=O)c3ccc(N4CCCN(C)CC4)nc3n3c2sc2ccccc23)cn1 , is recorded IC50 strictly lower than 70 nM?
A. 0 (no)
